Reported Anti-PSMA Fab signal in the presence of PSMA values follow for various binders
biological target: T1, Anti-PSMA Fab (SEQ ID NOs: 19, 20); test: phage binding ELISA; PSMA Fab on plate pre-incubated with PSMA antigen as competitor, anti-M13 HRP detection;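 also: crude clonal phage supernatants added without washing to wells preincubated with PSMA in blocking buffer, compared with wells receiving blocking buffer only, then bound phage detected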
T1 construct: In the phage ELISA the PSMA Fab was biotinylated and captured on neutravidin coated plates; also called 006 PSMA Fab
Where no end group is shown, it is not given here.
reported metric: Anti-PSMA Fab signal in the presence of PSMA

>  <binder>
DWRLCIPEWMCERL (Tested as clonal phage supernatant; not shown: pIII filament protein of the bacteriophage to which the peptide is fused for display) [Phage-2079 (peptide-180 library clone, SEQ ID NO: 2395)]

>  <observed result>
0.0875

$$$$
>  <binder>
SEHWCVPSWMCYGF (Tested as clonal phage supernatant; not shown: pIII filament protein of the bacteriophage to which the peptide is fused for display) [Phage-2084 (peptide-180 library clone, SEQ ID NO: 2400)]

>  <observed result>
0.0957

$$$$
>  <binder>
QGNWCKPAWMCSGF (cysteine pairing not given here; also: fused to phage pIII, pIII sequence and linker not given here, Tested as clonal phage supernatant; not shown: pIII filament protein of the bacteriophage to which the peptide is fused for display) [Phage-2072 (peptide-180 library clone, SEQ ID NO: 2388)]

>  <observed result>
0.0983

$$$$
>  <binder>
WSNWCTPRWVCKTI (Tested as clonal phage supernatant; not shown: pIII filament protein of the bacteriophage to which the peptide is fused for display) [Phage-2083 (peptide-180 library clone, SEQ ID NO: 2399)]

>  <observed result>
0.0752

$$$$
>  <binder>
VGNWCKPAWMCEMM (Tested as clonal phage supernatant; not shown: pIII filament protein of the bacteriophage to which the peptide is fused for display) [Phage-2074 (peptide-180 library clone, SEQ ID NO: 2390)]

>  <observed result>
0.0681

$$$$
>  <binder>
PEKLCIPDWMCHWD (Tested as clonal phage supernatant; not shown: pIII filament protein of the bacteriophage to which the peptide is fused for display) [Phage-2082 (peptide-180 library clone, SEQ ID NO: 2398)]

>  <observed result>
0.0951

$$$$
>  <binder>
VHQMCQPWWMCWET (Tested as clonal phage supernatant; not shown: pIII filament protein of the bacteriophage to which the peptide is fused for display) [Phage-2086 (peptide-180 library clone, SEQ ID NO: 2402)]

>  <observed result>
0.0749

$$$$
